The measurements presented in this section are drawn from patent US20230148599A1.

Reported Test A disease control rating values are given for each entry in this list.
test system: Septoria tritici; assay: Test A: wheat leaf blotch, preventive spray on wheat seedlings; assay type: in vivo; conditions: 50 ppm, 100 = 100% disease control, 0 = no control
Your answer is read as %, so omit the unit and give the number.

Here is how some molecules turned out for Test A disease control rating.
molecule | systemName | resultUnit | Test A disease control rating
Cc1nn(C)c(Nc2ccccc2[N+](=O)[O-])c1-c1c(F)cc(F)cc1Cl [compound 148] | Septoria tritici | % | 100
Cc1nn(C)c(Nc2c(Cl)cccc2[N+](=O)[O-])c1-c1ccc(F)cc1Br [compound 41] | Septoria tritici | % | 100
CCOc1ccc(Nc2c(-c3ccc(F)cc3Cl)c(C)nn2C)c([N+](=O)[O-])c1 [compound 103] | Septoria tritici | % | 97
Cc1ccc(Nc2c(-c3ccc(F)cc3Br)c(C)nn2C)c([N+](=O)[O-])c1 [compound 90] | Septoria tritici | % | 100
Cc1nn(C)c(Nc2c(Cl)cc(F)cc2[N+](=O)[O-])c1-c1ccc(Cl)cc1F [compound 176] | Septoria tritici | % | 100
COc1ccc(-c2c(C)nn(C)c2Nc2c(Cl)cc(Cl)cc2[N+](=O)[O-])c(Cl)c1 [compound 65] | Septoria tritici | % | 94

Query :: Look up and state reported Test A disease control rating for Cc1ccc(Nc2c(-c3c(F)cc(F)cc3Br)c(C)nn2C)c([N+](=O)[O-])c1 [compound 196]
Result :: 100

Query :: Look up and state reported Test A disease control rating for CCc1nn(C)c(Nc2c(F)cccc2[N+](=O)[O-])c1-c1ccc(F)cc1F [compound 46]
Result :: 100

Query :: Look up and state reported Test A disease control rating for Cc1nn(C)c(Nc2c(Cl)cccc2[N+](=O)[O-])c1-c1c(F)cc(F)cc1Cl [compound 152]
Result :: 99
